Target: Glucose transporter (Leishmania mexicana)
Experiment: ST_JUDE_LEISH: Cytotoxicity at 2uM final concentration against transgenic Leishmania Mexicana promastigotes LmGT2 that are glucose transport deficient and complemented with the L. Mexicana glucose transporter 2. Activity is measured by DNA content using SYBR green in vitro
Format: functional
valueKind: inhibition (%)
Answers are plain numbers, in %.

Study these solved cases before continuing.
compound=CS(=O)(=O)CCCNCc1ccc(-c2cc3c(Nc4ccc(OCc5ccccc5)cc4)ncnc3cn2)o1 valuekind=inhibition recordedmeasurement=2.01
compound=COc1ccc(NC(=O)[C@H](Cc2ccccc2)Nc2cc(C)nc(NCCc3ccccn3)n2)cc1 valuekind=inhibition recordedmeasurement=-0.86
compound=CCN1CCC(N(Cc2ccc(-c3ccc(C(F)(F)F)cc3)o2)C(=O)Cn2c(CCc3cccc(F)c3F)nc(=O)c3ccccc32)CC1 valuekind=inhibition recordedmeasurement=11.7
compound=CCn1cc(-c2nc(-c3cc(OC)cc(OC)c3)no2)c(=O)c2ccccc21 valuekind=inhibition recordedmeasurement=2.79

Batch request: inhibition per item, same order as input.
1. O=S(=O)(NCCN1CCCC1)c1ccc(-c2ccccc2CNC2Cc3ccccc3C2)cc1
2. CN1CCN(CCCN(Cc2ccc(-c3cccc(CNCc4ccc5c(c4)OCO5)c3)cc2)C(=O)Nc2ccccc2)CC1
3. OC1CCCN(Cc2ccc(-c3cccc(-c4nc5ccccc5[nH]4)c3)cc2)C1 (centres undefined)
4. NC1=NC(c2ccccc2)(c2ccccc2)C(=O)N1CC1CCC1
5. Cc1cccc(OC2CCN(c3ncc(C(=O)NCCCN4CCCC4=O)cc3Cl)CC2)c1

Result:
[50.5, 4.03, 2.79, 0.31, 0.99]

---

Provide the recorded inhibition for the entries that follow.
Biological target: Hexose transporter 1 (Plasmodium falciparum) (UniProt O97467)
Assay: ST_JUDE_LEISH: Cytotoxicity at 2uM final concentration against transgenic Leishmania Mexicana promastigotes LmPfHT that are glucose transport deficient and complemented with the Plasmodium falciparum hexose transporter. Activity is measured by DNA content using SYBR green in vitro
Assay type: functional
One number for each entry, in %.

Study these solved cases before continuing.
compound=Clc1ccc(/N=C(/NCCCCCCCN/C(=N\c2ccc(Cl)cc2)Nc2ccc(Cl)cc2)Nc2ccc(Cl)cc2)cc1 recordedmeasurement=1.89
compound=N=C(N)Nc1nc(-c2ccc(NCc3ccc(CNc4cccc(-c5csc(NC(=N)N)n5)c4)cc3)cc2)cs1 recordedmeasurement=1.69
compound=Nc1nc(N)c2c(n1)CCc1cc(Br)ccc1-2 recordedmeasurement=4.52

Batch request: inhibition per item, same order as input.
1. COc1ccc2nccc([C@@H](O)CN3CCC(NCCOc4ccc(F)cc4F)CC3)c2c1
2. CC1CN(Cc2ccc(C#N)cc2)CCN1c1ccc(NC(=O)c2cccs2)cc1 (stereo not given)
3. Cc1cc(C(=O)N[C@H]2CCN(Cc3ccc(OCCCN(C)C)cc3)C2)ccc1Br
4. CC(C)c1ccc2oc(-c3ccc(NC(=O)c4ccc([N+](=O)[O-])o4)cc3)nc2c1
5. COc1ccc2nc3cc(Cl)ccc3c(NCCc3ccccc3)c2c1

Result:
6.58
8.63
0.95
10.2
1.24

Batch request: inhibition per item, same order as input.
1. Clc1ccc(CNc2ccnc(NCCc3coc4ccccc34)n2)c(Cl)c1
2. CCN(CC)CCCC(C)Nc1ccnc2cc(C#N)ccc12 (stereo not given)

Result:
1. 6.11
2. -2.04

---

Provide the recorded inhibition for the entries that follow.
Biological target: Hexose transporter 1 (Plasmodium falciparum)
Assay: ST_JUDE_LEISH: Cytotoxicity at 2uM final concentration against transgenic Leishmania Mexicana promastigotes LmPfHT that are glucose transport deficient and complemented with the Plasmodium falciparum hexose transporter. Activity is measured by DNA content using SYBR green in vitro
Format: functional
One number for each entry, in %.

compound=O=C(/C=C/C=C/c1ccccc1)NCCCCCN1CCC(c2c[nH]c3ccccc23)CC1 targetundertest="Hexose transporter 1 (Plasmodium falciparum)" recordedmeasurement=4.23
compound=COc1c(Br)cc(Br)cc1C(C)=O targetundertest="Hexose transporter 1 (Plasmodium falciparum)" recordedmeasurement=3.58
compound=Cc1ccc(C2CCN(CCCCNC(=O)c3ccc(-c4ccc(C(F)(F)F)cc4)cc3)CC2)c(O)c1 targetundertest="Hexose transporter 1 (Plasmodium falciparum)" recordedmeasurement=-0.08
compound=Cc1cc2c3c(N)nc(N)nc3ccc2n1C(C)C targetundertest="Hexose transporter 1 (Plasmodium falciparum)" recordedmeasurement=79.8

// below: inhibition requested for another compound
Bench note, Hexose transporter 1 (Plasmodium falciparum): entry CC(C)Oc1cccc(-c2ccc(C(=O)NCC3CCCN(Cc4cccc(C(F)(F)F)c4)C3)s2)c1 (stereo not given) , its inhibition = -1.35

---

Provide the recorded inhibition for the entries that follow.
Target: Glucose transporter (Leishmania mexicana)
Assay: ST_JUDE_LEISH: Cytotoxicity at 2uM final concentration against transgenic Leishmania Mexicana promastigotes LmGT2 that are glucose transport deficient and complemented with the L. Mexicana glucose transporter 2. Activity is measured by DNA content using SYBR green in vitro
Type: functional
Give bare numbers, in %.

Study these solved cases before continuing.
compound="N#Cc1ccc2c(c1)CCN(CCC1CCC(NC(=O)/C=C/c3cc(Br)cs3)CC1)CC2 (stereo not given)" targetundertest="Glucose transporter (Leishmania mexicana)" valuekind=inhibition recordedmeasurement=-0.56
compound=CN(C)CCCNCCS(=O)(=O)c1cccc(Nc2ccc(-c3cccc(N(C)C)c3)cn2)c1 targetundertest="Glucose transporter (Leishmania mexicana)" valuekind=inhibition recordedmeasurement=1.78
compound=Cc1[nH]c(C)c(-c2ccc(OCCSc3ccncc3)cc2)c(=O)c1Br targetundertest="Glucose transporter (Leishmania mexicana)" valuekind=inhibition recordedmeasurement=0.05
compound=CN(C(=O)C1(c2ccc(Cl)cc2)CC1)C1CCN(CCCCCNC(=O)/C=C/c2ccc(Cl)c(Cl)c2)CC1 targetundertest="Glucose transporter (Leishmania mexicana)" valuekind=inhibition recordedmeasurement=4.56

// below: inhibition requested for another compound
Entry Cn1nc(-c2ccccc2F)c2cc(C(=O)NC3CCN(Cc4ccccc4)CC3)sc21 ; inhibition = -1.7

---

Biological target: Solute carrier family 2, facilitated glucose transporter member 1 (Homo sapiens) (UniProt P11166)
Sequence (P11166 whole entry): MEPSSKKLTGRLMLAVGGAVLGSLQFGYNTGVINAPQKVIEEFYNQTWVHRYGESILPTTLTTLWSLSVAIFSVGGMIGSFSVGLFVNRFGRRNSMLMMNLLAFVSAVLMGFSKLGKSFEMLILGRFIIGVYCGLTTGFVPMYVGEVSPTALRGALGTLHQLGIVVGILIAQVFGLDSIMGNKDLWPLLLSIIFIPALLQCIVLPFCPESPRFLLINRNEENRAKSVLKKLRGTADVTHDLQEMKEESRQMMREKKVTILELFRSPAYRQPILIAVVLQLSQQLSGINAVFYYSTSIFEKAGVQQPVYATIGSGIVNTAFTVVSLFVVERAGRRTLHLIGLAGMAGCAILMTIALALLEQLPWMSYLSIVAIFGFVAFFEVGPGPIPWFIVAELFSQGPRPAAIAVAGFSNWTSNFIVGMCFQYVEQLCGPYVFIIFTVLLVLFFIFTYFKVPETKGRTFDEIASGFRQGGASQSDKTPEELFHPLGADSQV
Test: ST_JUDE_LEISH: Cytotoxicity at 2uM final concentration against transgenic Leishmania Mexicana promastigotes LmGLUT1 that are glucose transport deficient and complemented with the human glucose transporter GLUT1. Activity is measured by DNA content using SYBR green in vitro
Format: functional
Provide the recorded inhibition for the entries that follow.
Answers are plain numbers, in %.

compound=Cc1cc(CN2CC[C@H](NC(=O)c3ccc(Cl)c(Cl)c3)C2)ccc1OC1CCN(Cc2ccccc2)CC1 unitname=% recordedmeasurement=11

Batch request: inhibition per item, same order as input.
1. CCN(CC)CCCCNc1cc(-c2[nH]c(C(C)(C)C)nc2-c2ccc3cc(OC)ccc3c2)ccn1
2. CCOC(=O)NC1=NC(C)(C)N(OCc2cccc3c2ccc2ccccc23)C(NC(=O)OCC)=N1
3. COC(=O)Nc1cc(C(F)(F)F)ccc1N1CCCC(NS(=O)(=O)c2ccc(C(C)(C)C)cc2)C1 (centres undefined)

Result:
1. 4.69
2. 10.7
3. 10

---

Target: Hexose transporter 1 (Plasmodium falciparum) (UniProt O97467)
Assay: ST_JUDE_LEISH: Cytotoxicity at 2uM final concentration against transgenic Leishmania Mexicana promastigotes LmPfHT that are glucose transport deficient and complemented with the Plasmodium falciparum hexose transporter. Activity is measured by DNA content using SYBR green in vitro
Assay type: functional
valueKind: inhibition (%)
Give bare numbers, in %.

compound=COc1ccc2nccc([C@@H](O)CN3CCC(NCc4nc5ccc(F)cc5[nH]4)CC3)c2c1 valuekind=inhibition unitname=% recordedmeasurement=1.93
compound=c1ccn2c(Sc3ncnc4sccc34)ncc2c1 valuekind=inhibition unitname=% recordedmeasurement=-1.87
compound="CN(C)S(=O)(=O)c1ccc(Nc2nc(NCCC3C=NC=N3)nc3cc[nH]c(=O)c23)cc1 (stereo not given)" valuekind=inhibition unitname=% recordedmeasurement=5.35
compound=Cn1c(NCc2cc(F)cc3c2OCOC3)nc2cc(Nc3ccnc(Nc4cccc(CS(C)(=O)=O)c4)n3)ccc21 valuekind=inhibition unitname=% recordedmeasurement=1.11
compound=O=c1c(Br)c(C(F)(F)F)[nH]c2ccc(Oc3ccccc3)cc12 valuekind=inhibition unitname=% recordedmeasurement=2.75

Batch request: inhibition per item, same order as input.
1. CCn1c(-c2nonc2N)nc2cnc(Oc3cccc(NC(=O)c4ccc(OCCN(C(C)C)C(C)C)cc4)c3)cc21
2. Cn1c2c(c3ccccc31)CN(CCC1(c3ccc(Cl)c(Cl)c3)CN(C(=O)c3ccccc3)CCO1)CC2 (stereo not given)
3. CC(=O)NCCNc1nccc(N2CCc3ncnc(Nc4ccc(OCc5cccc(F)c5)c(Cl)c4)c3C2)n1
4. Nc1nc(N)c2c(Oc3cccc(Cl)c3)cccc2n1
5. CCOc1ccc2nc(C)cc(N/N=C/c3cccc([N+](=O)[O-])c3)c2c1

Result:
[18.2, 1.72, -2.13, 1.79, 0.05]

Batch request: inhibition per item, same order as input.
1. O=C(Nc1ccc(-c2nc3ccccc3[nH]2)cc1)c1cccc([N+](=O)[O-])c1
2. O=C1CCCN1CCCNCc1cccc(-c2ccc(-c3nc4ccccc4[nH]3)s2)c1
3. COC(=O)c1cccc(CNCc2ccc(-c3ccc(-c4nc5cccc(C)c5[nH]4)s3)cc2)c1
4. COc1ccc(-n2cc(CNCCCn3ccnc3)c(-c3cccc(F)c3)n2)cc1
5. COc1ccc(NS(=O)(=O)c2ccc(Oc3nc(C)nc4sc5c(c34)CCCC5)cc2)cc1
6. COc1ccc(C)c(Nc2ccnc(Nc3ccc(-c4cnc[nH]4)cc3)n2)c1
7. COc1ccc(C(=O)N2CCC(C(=O)NC(C)c3ccc(-n4ccnc4)cc3)CC2)c2ccccc12 (stereo not given)
8. COc1cc(OC)c(NC(=O)C2c3ccccc3C(=O)N(C)C2c2cccs2)cc1Cl (stereo not given)

Result:
1: -1.86; 2: 0.07; 3: 2.96; 4: 2.48; 5: 3.7; 6: 2.37; 7: -0.1; 8: 5.87

Batch request: inhibition per item, same order as input.
1. N#Cc1ccc(-c2cnc3ccc(NCCc4cccnc4)nn23)cc1
2. CCCC[C@@H](C(=O)NCCc1ccc(Cl)cc1)N1C(=O)CCC1C(=O)Nc1ccc(Cl)c(Cl)c1 (stereo not given in full)

Result:
1. -0.84
2. 2.4

// provenance: ChEMBL document CHEMBL3433997
